Reported TGI values are given for each entry in this list.
# Tested on: EKVX NSCLC
# procedure_details: NCI tumour cell line growth inhibition, 48 h

Value of TGI reported for the compound O=S(CCCl)c1c2ccccc2nc2ccccc12 (stereo not drawn) is > 100 µM

TGI reported for this compound `OCCN(CCO)c1ccc2c(c1)Cc1ccccc1-2` : > 100 µM

Short answer for CCOC(=O)CCC(NC(=O)c1ccc(Nc2nc3ccccc3nc2-c2cccs2)cc1)C(=O)OCC (stereo not drawn) : TGI was > 100 µM

====

This listing pairs compounds with measured TGI.
# Test system: MALME-3M melanoma
# procedure_details: NCI tumour cell line growth inhibition, 48 h

compound	TGI
CCOC(=O)CCC(NC(=O)Cc1ccc(Oc2nc3ccccc3nc2-c2cccs2)cc1)C(=O)OCC (configuration not stated)	> 100 µM
Nc1c(-c2ccc(Cl)cc2Cl)[n+]([O-])c2ccccc2[n+]1[O-]	> 100 µM
O=c1[nH]nc(Cc2ccc(Cl)cc2)n1/N=C\CC/C=N\n1c(Cc2ccc(Cl)cc2)n[nH]c1=O	> 84.7 µM
N#CCCN(CCC#N)c1ccc(/C=C2\N=C(c3ccccc3)N(c3ccccn3)C2=O)cc1	> 100 µM
CN(C)c1nc(-c2ccccc2)c(C(=O)c2c[nH]c3ccccc23)s1	> 100 µM
Cc1n[nH]c(=O)n1/N=C/c1c[nH]c2ccccc12	> 100 µM

Assay MALME-3M melanoma, sample `O=c1c2ccccc2c2nc3ccccc3nc2n1C1CCCCC1` , TGI read: > 100 µM

Per the reported MALME-3M melanoma data, `Cc1ccc(C)c(-c2csc(Nc3ccc(C)c(C)c3)n2)c1` has TGI of > 100 µM

Form: item `COc1ccccc1Cn1nc(OC)c2cc([N+](=O)[O-])ccc21` ; test system MALME-3M melanoma; TGI: > 100 µM

The reported TGI value, MALME-3M melanoma, for `O=C(OC(=C(c1ccccc1)c1ccccc1)N1CCCC1=S)C(c1ccccc1)c1ccccc1` reads > 10 µM

The compound `CCOC(=O)[C@@]12CCC(C1=O)[C@](C)(O)C[C@@H]2c1ccccc1` , when measured on MALME-3M melanoma, yielded TGI of > 100 µM

Assay MALME-3M melanoma, sample CCCCN1C(=O)NC(Cc2ccccc2)C1=O (configuration not stated) , TGI read: > 100 µM
